B1: 5KPH (parent)
chain: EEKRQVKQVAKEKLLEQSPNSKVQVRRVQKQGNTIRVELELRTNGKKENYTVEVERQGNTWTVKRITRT

# Variants of: B1
# measurement-notes: folding stability dG (cDNA display proteolysis); higher = more stable
# test-parameters: PBS, room temperature
value-type: folding stability dG (kcal/mol)
Numbers only, in kcal/mol.

variant-label | value-type | experimental-value
E1W | folding stability dG | 2.91

I have 4 variants here; please give me folding stability dG for each one.
1. R42Y
2. T43C
3. L39Y
4. Y50A

Out:
[4.45, 3.24, 2.59, 2.98]

I have 8 variants here; please give me folding stability dG for each one.
1. Q29F
2. E48H
3. E53A
4. R68L
5. Q29W
6. Q5E
7. T67R
8. K3S

Out:
[4.45, 3.34, 2.99, 4.21, 4.58, 3.88, 3.73, 4.17]

Data provenance is the MegaScale stability set (Tsuboyama et al. 2023).
